- targetOfAssay: Protein deacetylase HDAC6 (Homo sapiens, UniProt Q9UBN7)
- Sequence (Q9UBN7 whole entry): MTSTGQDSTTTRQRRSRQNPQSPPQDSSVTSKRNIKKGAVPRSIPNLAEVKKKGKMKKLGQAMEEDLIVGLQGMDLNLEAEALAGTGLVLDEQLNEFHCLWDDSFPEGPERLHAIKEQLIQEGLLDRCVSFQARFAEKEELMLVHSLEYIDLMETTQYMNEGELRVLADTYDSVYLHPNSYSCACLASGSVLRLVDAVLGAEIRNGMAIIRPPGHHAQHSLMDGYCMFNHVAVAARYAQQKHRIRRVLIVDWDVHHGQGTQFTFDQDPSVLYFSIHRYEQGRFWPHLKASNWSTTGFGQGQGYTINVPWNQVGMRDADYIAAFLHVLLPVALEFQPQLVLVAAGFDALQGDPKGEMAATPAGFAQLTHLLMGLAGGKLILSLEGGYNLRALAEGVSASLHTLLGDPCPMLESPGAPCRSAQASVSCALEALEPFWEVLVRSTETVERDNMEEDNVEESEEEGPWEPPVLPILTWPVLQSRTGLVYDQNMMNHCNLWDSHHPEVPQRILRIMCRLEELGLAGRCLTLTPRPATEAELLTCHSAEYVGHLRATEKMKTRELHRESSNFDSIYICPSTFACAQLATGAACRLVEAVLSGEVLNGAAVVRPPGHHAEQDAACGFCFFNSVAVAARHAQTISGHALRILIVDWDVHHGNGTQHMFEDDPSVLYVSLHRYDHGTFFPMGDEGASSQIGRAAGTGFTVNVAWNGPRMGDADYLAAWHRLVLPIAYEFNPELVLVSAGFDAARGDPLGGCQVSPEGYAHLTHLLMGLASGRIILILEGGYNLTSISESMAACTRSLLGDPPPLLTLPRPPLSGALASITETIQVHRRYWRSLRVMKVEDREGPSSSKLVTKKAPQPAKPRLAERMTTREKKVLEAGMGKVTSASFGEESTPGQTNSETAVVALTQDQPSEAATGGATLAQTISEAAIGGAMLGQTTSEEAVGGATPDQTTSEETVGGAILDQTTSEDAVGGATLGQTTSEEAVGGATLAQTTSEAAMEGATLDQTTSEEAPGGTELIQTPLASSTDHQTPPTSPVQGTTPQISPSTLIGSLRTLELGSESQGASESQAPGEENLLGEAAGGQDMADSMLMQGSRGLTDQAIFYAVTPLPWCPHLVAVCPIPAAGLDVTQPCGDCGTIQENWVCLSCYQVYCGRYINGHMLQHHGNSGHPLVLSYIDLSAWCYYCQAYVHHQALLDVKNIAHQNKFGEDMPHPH
- experimentNotes: Inhibition of HDAC6 (unknown origin)
Measured IC50 accompanies every entry in the list below.
Answer with a number only, understood to be in nM.

Examples with their reported IC50 follow.
[[record]]
smilesrecord = "O=C(NO)c1ccc(CN2C(=O)/C(=C3\\Nc4ccccc4\\C3=N/O)c3ccccc32)cc1"
measuredproperty = "IC50"
value = 7

[[record]]
smilesrecord = "O=C(NO)c1ccc(CN2C(=O)/C(=C3\\Nc4ccccc4\\C3=N/O)c3cccc(Cl)c32)cc1"
measuredproperty = "IC50"
value = 49

[[record]]
smilesrecord = "O=C(NO)c1ccc(CN2C(=O)/C(=C3\\Nc4ccccc4\\C3=N/O)c3cc(F)ccc32)cc1"
measuredproperty = "IC50"
value = 43


Specify reported IC50 for the compound shown: `COc1ccc2c(c1)/C(=C1/Nc3ccccc3/C1=N\O)C(=O)N2Cc1ccc(C(=O)NO)cc1`
30

Specify reported IC50 for the compound shown: `O=C(NO)c1ccc(CN2C(=O)/C(=C3\Nc4ccccc4\C3=N/O)c3cc(Br)ccc32)cc1`
24
